- Test system: KM12 colon
- protocol: NCI-60 one-dose screen, 48 h
- condition-summary: 10 µM
Compounds without any hit were thinned out: in the full panel of roughly 83,000, 20% have a hit. Activity calls are given as the source filed them. How the source made its calls: active means growth percent below 10; inactive means the rest.
Outcomes: true for active, false for inactive

CC1C(=O)c2ccccc2CC1C(=O)O (configuration not stated) : false
CCN(CC)C(=O)/C=C(/C)c1ccccc1 : false
CC1CCCCN1C(=S)Nc1ccc(S(=O)(=O)N2CCCCC2)cc1 (configuration not stated) : false
CSC[C@H](NC(=O)COc1cccc2cnccc12)C(=O)NC(Cc1ccccc1)C(O)C(=O)N1CSC[C@H]1C(=O)NC(C)(C)C (some centres not stated) : false
CN(C)C(C)(C)CC(C)(C)C : false
O=[N+]([O-])c1ccc(Cl)c(S(=O)(=O)O)c1 : false
CCN(CC)c1ccc2nc3ccc(=[N+](CC)CC)cc-3oc2c1 : true
CCOC(=O)C1=C(C)NC(=O)NC1c1cccs1 (configuration not stated) : false
O=C1OC(=O)C2C1C1(Cl)C(Cl)=C(Cl)C2(Cl)C2C(=O)OC(=O)C21 (configuration not stated) : false
CS(=O)CC1=NC(=N)N=C1CS(C)=O (configuration not stated) : false
CC1CCCC(CC(N)=O)CC1 (configuration not stated) : false
O=C(O)CSCSCC(=O)O : false

These data points were gathered from PubChem BioAssay (NCI).
